ASSAY_PROTOCOL: S6 kinase pathway phospho-S6 level changes – cell-based, A549, cytoblot, luminescence, serum-stimulated, primary screen (AID 1158);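 further: serum-stimulated A549 lung adenocarcinoma cells; signal is phosphorylated S6 detected by cytoblot immunostaining with HRP secondary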
MEASUREMENT_PARAMETERS: 5 h, higher = more signal
Tag: satisfied if measured z-score is not below -0.1, not satisfied if it is.

COCCCNC(=O)[C@@]1(Cc2ccccc2CN=[N+]=[N-])N=C(c2ccc(OCCCO)cc2)O[C@H]1c1ccccc1CN=[N+]=[N-]: satisfied
COC(=O)C(CC#Cc1ccc2c(c1)[C@]1(C(=O)N2)[C@H](c2ccccc2OCCO)N2[C@H](c3ccccc3)[C@H](c3ccccc3)OC(=O)[C@H]2[C@@H]1C(=O)O)C(=O)OC: not satisfied

Is it the case that CCCC[C@H]1C[C@@H]1[C@@H]1N(P(=O)(c2ccccc2)c2ccccc2)C[C@@](O)(c2ccccc2)CC12CC2 has z-score reaching or exceeding -0.1?
not satisfied

Reported z-score reaches at least -0.1 for CCCCC(=C=CC[C@@H](O)c1cccc(OCCO)c1)C[C@@H](O)c1ccccn1 ?
satisfied

Decide: is the reported value of z-score for COc1ccc(C(O)C2C=CC3C(=O)N(C)C(=O)C3N2NC(=O)OC(C)(C)C)c2ccccc12 (stereo unspecified) equal to or greater than -0.1?
not satisfied

Textbook exercise: given the entry CC(C)CCC[C@@H](C)[C@H]1CC[C@@]2(C)C3=C(CC[C@]12C)[C@@]1(C)CC[C@H](OC(=O)c2ccc(C(F)(F)F)nc2)C(C)(C)C1CC3 (stereo partly specified) , state whether its z-score is greater than or equal to -0.1.
satisfied

Is the recorded value of z-score equal to or greater than -0.1 for this molecule? O=C1C2C=CC(C(O)COCc3ccccc3)N(Nc3ccc([N+](=O)[O-])cc3)C2C(=O)N1c1ccccc1 (stereo unspecified)
satisfied
